# TESTED_SYSTEM: Porcine ventricle myofibrils (ventricular myosin ATPase) (Sus scrofa)
# Construct: Myofibrils from porcine cardiac muscle was isolated from the left ventricle of Yucatan minipigs; tissue Exemplar Genetics; host or cells: left ventricle of Yucatan minipigs, myofibrils prepared in house
# Sequence (P79293 whole entry): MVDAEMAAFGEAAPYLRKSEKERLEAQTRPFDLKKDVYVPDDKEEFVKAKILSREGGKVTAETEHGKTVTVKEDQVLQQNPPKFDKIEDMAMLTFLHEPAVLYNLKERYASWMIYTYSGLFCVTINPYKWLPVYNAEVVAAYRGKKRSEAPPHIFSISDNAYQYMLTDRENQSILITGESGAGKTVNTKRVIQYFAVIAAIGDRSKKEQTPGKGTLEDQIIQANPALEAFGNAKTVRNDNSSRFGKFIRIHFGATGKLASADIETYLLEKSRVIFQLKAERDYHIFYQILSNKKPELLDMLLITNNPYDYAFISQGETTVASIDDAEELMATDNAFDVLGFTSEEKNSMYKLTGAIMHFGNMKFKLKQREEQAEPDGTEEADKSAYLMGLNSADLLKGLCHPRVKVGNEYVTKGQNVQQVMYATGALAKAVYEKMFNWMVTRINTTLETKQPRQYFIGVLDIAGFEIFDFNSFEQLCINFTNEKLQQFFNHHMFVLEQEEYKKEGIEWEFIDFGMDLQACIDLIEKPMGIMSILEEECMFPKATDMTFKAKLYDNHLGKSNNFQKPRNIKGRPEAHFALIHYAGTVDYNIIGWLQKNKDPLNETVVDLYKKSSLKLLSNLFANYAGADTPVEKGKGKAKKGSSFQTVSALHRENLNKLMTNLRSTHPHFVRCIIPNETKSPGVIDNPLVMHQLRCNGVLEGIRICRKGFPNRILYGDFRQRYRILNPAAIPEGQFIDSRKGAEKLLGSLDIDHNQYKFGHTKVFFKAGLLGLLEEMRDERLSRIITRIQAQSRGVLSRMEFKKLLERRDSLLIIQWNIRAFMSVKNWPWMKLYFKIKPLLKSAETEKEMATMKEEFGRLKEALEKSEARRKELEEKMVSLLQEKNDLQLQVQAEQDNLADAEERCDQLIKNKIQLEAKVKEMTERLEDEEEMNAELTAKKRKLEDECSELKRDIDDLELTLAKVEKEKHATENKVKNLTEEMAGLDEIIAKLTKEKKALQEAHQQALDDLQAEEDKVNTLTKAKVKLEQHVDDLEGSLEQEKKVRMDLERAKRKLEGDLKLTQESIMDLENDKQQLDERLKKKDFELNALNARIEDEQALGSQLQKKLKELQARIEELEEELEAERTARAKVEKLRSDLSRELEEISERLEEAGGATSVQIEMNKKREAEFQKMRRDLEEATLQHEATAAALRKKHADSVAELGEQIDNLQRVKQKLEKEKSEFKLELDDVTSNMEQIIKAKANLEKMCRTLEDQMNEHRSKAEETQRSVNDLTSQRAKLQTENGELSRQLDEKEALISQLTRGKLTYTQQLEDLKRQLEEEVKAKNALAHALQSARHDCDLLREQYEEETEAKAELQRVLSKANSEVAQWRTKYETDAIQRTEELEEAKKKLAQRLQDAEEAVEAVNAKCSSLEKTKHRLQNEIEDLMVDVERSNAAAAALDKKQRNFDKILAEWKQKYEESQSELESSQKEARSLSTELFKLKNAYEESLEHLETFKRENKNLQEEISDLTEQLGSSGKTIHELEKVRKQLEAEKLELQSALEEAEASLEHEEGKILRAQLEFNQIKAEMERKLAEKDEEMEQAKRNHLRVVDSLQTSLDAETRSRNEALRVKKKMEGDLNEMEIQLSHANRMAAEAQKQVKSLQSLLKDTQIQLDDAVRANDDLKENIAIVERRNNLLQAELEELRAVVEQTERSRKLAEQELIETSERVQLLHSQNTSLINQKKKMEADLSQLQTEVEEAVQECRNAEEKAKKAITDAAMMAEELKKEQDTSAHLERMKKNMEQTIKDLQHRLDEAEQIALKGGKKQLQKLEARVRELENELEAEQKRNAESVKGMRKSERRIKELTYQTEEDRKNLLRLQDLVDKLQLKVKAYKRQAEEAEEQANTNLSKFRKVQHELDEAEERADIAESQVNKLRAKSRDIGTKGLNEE
# METHOD: Myofibril ATPase assay, porcine ventricle myofibrils
# Type: biochemical, porcine (Yucatan minipigs)
# SETTINGS: porcine ventricle myofibrils; Y75 value
ASSAY_METRIC: Ventricular EC25 (µM)

Worked cases, Ventricular EC25 given:
[[record]]
compound = "Cc1nccc2[nH]c(=O)c(CC(=O)N[C@@H](CO)c3cccnc3)c(C)c12 (single isomer, unassigned) [compound 312]"
obs_value = 100.00

[[record]]
compound = "Cc1nccc2[nH]c(=O)c(CC(=O)N[C@@H](C)c3cccc(O)n3)c(C)c12 (single isomer, unassigned) [compound 298]"
obs_value = 100.00

[[record]]
compound = "Cc1c(CC(=O)N[C@H](CO)c2ncc(C#N)cc2F)c(=O)[nH]c2ccnc(C#N)c12 (single isomer, unassigned) [compound 245]"
obs_value = 9.46


[P] COC[C@H](NC(=O)Cc1c(C)c2c(C)nccc2[nH]c1=O)c1ccc(C#N)cc1F [compound 169]
[Q] Cc1c(CC(=O)N[C@H](CO)c2ncc(F)cc2F)c(=O)[nH]c2ccc(C#N)nc12 [compound 259]
[R] C[C@H](NC(=O)Cc1c(Cl)c2cnccc2[nH]c1=O)c1ccc(C#N)cn1 [compound 454]
[S] COc1nccc2[nH]c(=O)c(CC(=O)N[C@H](C)c3ncc(C#N)cc3F)c(C(F)(F)F)c12 (single isomer, unassigned) [compound 3009]
Lookup: Order the records by Ventricular EC25, with each subsequent value no larger than the one before. List each label, following the requested order.
Found: Q, R, P, S
